EXPERIMENT_NOTES: Metabolic stability of the compound in CD-1 mouse liver microsomes assessed as parent compound remaining at 1 uM measured after 60 mins in presence of NADPH regenerating system by LC/MS analysis
Assay type: ADME, Microsome
COND: read-out: Stability
REPORTED_PROPERTY: remaining at 1 h, 1 µM

// `O=C(O)CNC(=O)c1ccc(S(=O)(=O)N2CCC(c3ccc(Cl)cc3)CC2)cn1` : remaining at 1 h, 1 µM value = > 90%

====

Reported Kd values for a set of compounds
STUDY_TARGET: Protein deacetylase HDAC6 (Homo sapiens)
Sequence (Q9UBN7 whole entry): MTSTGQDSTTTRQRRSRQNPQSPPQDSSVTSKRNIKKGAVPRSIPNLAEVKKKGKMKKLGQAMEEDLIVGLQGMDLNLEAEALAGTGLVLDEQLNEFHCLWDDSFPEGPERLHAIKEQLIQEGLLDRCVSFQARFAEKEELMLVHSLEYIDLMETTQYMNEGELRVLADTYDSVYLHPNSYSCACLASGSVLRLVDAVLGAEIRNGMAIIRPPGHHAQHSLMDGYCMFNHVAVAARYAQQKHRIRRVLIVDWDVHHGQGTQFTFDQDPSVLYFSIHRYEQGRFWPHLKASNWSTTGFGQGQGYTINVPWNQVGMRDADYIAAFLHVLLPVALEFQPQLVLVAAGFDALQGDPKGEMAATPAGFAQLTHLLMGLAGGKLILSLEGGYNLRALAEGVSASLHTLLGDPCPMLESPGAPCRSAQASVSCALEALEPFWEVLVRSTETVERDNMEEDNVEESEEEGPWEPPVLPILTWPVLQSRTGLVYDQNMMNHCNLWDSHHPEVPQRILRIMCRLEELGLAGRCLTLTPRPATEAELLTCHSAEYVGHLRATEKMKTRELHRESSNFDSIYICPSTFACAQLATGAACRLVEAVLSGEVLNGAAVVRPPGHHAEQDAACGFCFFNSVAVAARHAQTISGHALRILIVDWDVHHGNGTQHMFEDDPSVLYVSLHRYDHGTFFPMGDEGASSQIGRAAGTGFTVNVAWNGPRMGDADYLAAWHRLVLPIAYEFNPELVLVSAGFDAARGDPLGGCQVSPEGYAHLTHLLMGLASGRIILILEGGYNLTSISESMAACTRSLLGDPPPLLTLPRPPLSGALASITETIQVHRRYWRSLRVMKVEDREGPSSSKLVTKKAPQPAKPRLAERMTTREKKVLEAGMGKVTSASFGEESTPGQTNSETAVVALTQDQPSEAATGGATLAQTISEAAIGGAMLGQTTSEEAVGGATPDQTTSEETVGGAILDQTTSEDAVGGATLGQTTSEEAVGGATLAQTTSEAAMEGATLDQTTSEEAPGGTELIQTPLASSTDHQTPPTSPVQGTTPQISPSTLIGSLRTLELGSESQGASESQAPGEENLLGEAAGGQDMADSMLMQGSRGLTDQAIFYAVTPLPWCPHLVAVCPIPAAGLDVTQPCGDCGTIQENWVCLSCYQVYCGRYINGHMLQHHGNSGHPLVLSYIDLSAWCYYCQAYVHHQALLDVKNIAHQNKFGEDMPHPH

1) O=C(O)CNC(=O)c1ccc(S(=O)(=O)N2CCc3ccccc3C2)cc1 = 290 µM
2) O=C(O)CNC(=O)c1cccc(S(=O)(=O)N2CCC(c3ccccc3)CC2)c1 = > 440 µM
3) CN1CCN(C2CCN(S(=O)(=O)c3ccc(C(=O)NCC(=O)O)cc3)CC2)CC1 = 370 µM
4) Cn1cc(S(=O)(=O)N2CCC(c3ccccc3)CC2)cc1C(=O)NCC(=O)O = > 1000 µM
5) O=C(O)CNC(=O)c1ccc(S(=O)(=O)N2Cc3ccccc3C2)cc1 = > 480 µM

// `Cc1cc(S(=O)(=O)N2CCC(c3ccccc3)CC2)ccc1C(=O)NCC(=O)O` : Kd value = 160 µM

// `O=C(O)CNC(=O)c1ccc(S(=O)(=O)N2CCC(N3CCCC3)CC2)cc1` : Kd value = 520 µM

// O=C(O)CNC(=O)c1ccc(S(=O)(=O)N2CCCC(c3ccccc3)CC2)cc1 (centres undefined) : Kd value = > 640 µM

// `CN1CCC2(CC1)CCN(S(=O)(=O)c1ccc(C(=O)NCC(=O)O)cc1)CC2` : Kd value = 410 µM
